Provide the reported pKd of each item.
# test_target: T1, RSV F ectodomain stabilized in the postfusion conformation (F ΔFP), subtype A (Respiratory syncytial virus subtype A, UniProt P03420 26-109; P03420 147-524)
# T1 construct: extracellular domain; trimer; furin-cleaved; also called Postfusion subtype A
# test: BLI, IgG on AHQ sensor, 100 nM antigen
Scale note: pKd = -log10(concentration in M).

query: Any idea what its pKd is? The binder is ADI-14439 (antibody, V domains shown, full-length IgG (yeast-expressed); also called Antibody Number 2; Ab# 2) VH: QVQLVQSGAEVKKPGSSVRVSCRASGVTLTTVAVNWVRQVPGQGPEWIGGILVGLGKVRLAQKFENRATLRADTSSNTAYMELSGLRFEDTAVYYCAIIDPQDCTAASCFWVNWLDPWGQGTLVTVSS VL: EIVLTQSPGTLTLSPGETATLSCRASQSVLSGYLAWYQQKPGQAPRLLIYAASTRATDIPARFTGSGSATDFTLTISRLEPQDFAVYYCQQYGSAPITFGQGTRLEIK
result: 8.29

query: Any idea what its pKd is? The binder is ADI-14443 (antibody, V domains shown, full-length IgG (yeast-expressed); also called Antibody Number 6; Ab# 6) VH: QVQLVQSGTEVKKPGSSVKVSCKASGGTFGSYAVIWVRQAPGQGLEWMGHFIPVFATTNKAQKFQGRLTLSTDESTGTVYMELSSLRSEDTAVYFCATKRYCSDPSCHGLWYFDLWGRGTLVTVSS VL: DIQLTQSPLSLPVTPGEPASISCRSSQSLLDSDDGNTYLDWYLQKPGQSPQVLIYMLSYRASGVPDRFSGSGSGTDFTLEISRVEAEDVGVYYCMQRVEFPYTFGQGTKLEIK
result: 9.72

query: Any idea what its pKd is? The binder is ADI-14450 (antibody, V domains shown, full-length IgG (yeast-expressed); also called Antibody Number 13; Ab# 13) VH: QVQLVQSGGGLVKPGGSRRLACAASGFIFRNAWMSWVRQAPGKGLEWVGRIKRTSEGGSVDYATPVQGRFSISRDDSRNTLYLQMHSLAPDDTAVYYCSTGPPYSYFDSTGYSVVDYWGQGTLVTVSS VL: QSVLTQPPSASGTPGQRVTISCSASSSNIGDNYFYWYQQLPGKAPTLLMYGSDQRSSGVPDRFSGSQSGTSASLAISGLRSEDEAAYYCAAWDDSLSGPVFGGGTQLTVL
result: 9.64
